- Tested on: HIV-IIIb IN T174I BT
- procedureSummary: Antiviral assay in MT4 cells, HIV-IIIb IN T174I BT virus (from viral breakthrough)
- Format: cell-based, HIV-1
- runParameters: Human immunodeficiency virus 1, IIIB, MT4, 120 h, read-out: T174I BT EC50, MT4 cells, HIV-IIIb IN T174I BT (viral breakthrough), 5 days, CellTiter-Glo
metric: log10 of EC50 (log10 of the value in nM)
Hey, these are logged values: log10 of EC50, nM being the unit before logging.

// solved cases for log10 of EC50 follow
>  <compound>
Cc1cc2nc(-c3cnc4c(c3)c(N3CCN(C(C)C)CC3)nn4C)sc2c(-c2ccc(Cl)cc2)c1[C@H](OC(C)(C)C)C(=O)O [Compound 111]

>  <numericResult>
3.06

$$$$
>  <compound>
Cc1cc2nc(-c3ccc4c(c3)c(C3CCN(C(=O)[C@@H]5CCCO5)CC3)nn4C)sc2c(-c2ccc(Cl)cc2)c1[C@H](OC(C)(C)C)C(=O)O [Compound 157]

>  <numericResult>
2.79

$$$$
>  <compound>
COCCN1CCC(c2nn(C)c3ccc(-c4nc5cc(C)c([C@H](OC(C)(C)C)C(=O)O)c(-c6ccc(Cl)cc6)c5s4)cc23)CC1 [Compound 125]

>  <numericResult>
2.60

$$$$
>  <compound>
Cc1cc2nc(-c3ccc4c(c3)c(C3CCN(C(=O)[C@H]5CCCO5)CC3)nn4C)sc2c(-c2ccc(Cl)cc2)c1[C@H](OC(C)(C)C)C(=O)O [Compound 9]

>  <numericResult>
2.37

$$$$
>  <compound>
[2H]C([2H])([2H])C(O[C@H](C(=O)O)c1c(C)cc2nc(-c3ccc4c(c3)c(C3CCN(C5COC5)CC3)nn4C)sc2c1-c1ccc(Cl)cc1)(C([2H])([2H])[2H])C([2H])([2H])[2H] [Compound 21]

>  <numericResult>
2.09

$$$$
>  <compound>
CO[C@@H]1CCN(c2nn(C)c3ccc(-c4nc5cc(C)c([C@H](OC(C)(C)C)C(=O)O)c(-c6ccc(Cl)cc6)c5s4)cc23)C1 [Compound 140]

>  <numericResult>
3.37

$$$$
>  <compound>
CC(=O)N1CC[C@H](N2CCC(c3nn(C)c4ccc(-c5nc6cc(C)c([C@H](OC(C)(C)C)C(=O)O)c(-c7ccc(Cl)cc7)c6s5)nc34)CC2)C1 [Compound 170]

>  <numericResult>
1.76

$$$$
>  <compound>
Cc1cc2nc(-c3ccc4c(c3)c(C3CCN(C5CCOC5)CC3)nn4C)sc2c(-c2ccc(Cl)cc2)c1[C@H](OC(C)(C)C)C(=O)O (stereo in doubt) [Compound 27]

>  <numericResult>
2.19

$$$$

Name the reported log10 of EC50 value associated with the compound Cc1cc2nc(-c3ccc4c(c3)c(C3CN(C5COC5)C3)nn4C)sc2c(-c2ccc(Cl)cc2)c1[C@H](OC(C)(C)C)C(=O)O [Compound 59] 2.95

Name the reported log10 of EC50 value associated with the compound CC(=O)N1CC(N2CCC(c3c4nc(-c5nc6cc(C)c([C@H](OC(C)(C)C)C(=O)O)c(-c7ccc(Cl)cc7)c6s5)ccc4nn3C(F)F)CC2)C1 [Compound 189] 3.01

* * *

- System: HIV-IIIb IN T174I DE
- procedureSummary: Antiviral assay in MT4 cells, HIV-IIIb IN T174I DE virus (from dose escalation passaging)
- Format: cell-based, HIV-1
- runParameters: Human immunodeficiency virus 1, IIIB, MT4, 120 h, read-out: T174I DE EC50, MT4 cells, HIV-IIIb IN T174I DE (dose escalation), 5 days, CellTiter-Glo
metric: EC50
Form field: result (number plus unit)

>  <molecule>
CCN1CC(c2nn(C)c3ccc(-c4nc5cc(C)c([C@H](OC(C)(C)C)C(=O)O)c(-c6ccc(Cl)cc6)c5s4)cc23)C1

>  <EC50>
3.09 µM

$$$$

Proceeding to the next molecule to report its EC50.
Name the reported EC50 value associated with the molecule `Cc1cc2nc(-c3ccc4c(c3)c(N3CC(C)(C)NC3=O)nn4C)sc2c(-c2ccc(Cl)cc2)c1[C@H](OC(C)(C)C)C(=O)O` 2.69 µM

* * *

- System: HIV-IIIb (wildtype)
- procedureSummary: Antiviral assay in MT4 cells, HIV-IIIb wildtype
- Type: cell-based, HIV-1
- runParameters: Human immunodeficiency virus 1, IIIB, MT4, 120 h, read-out: WT EC50
Threshold 7 nM: EC50 strictly smaller gives 1, otherwise 0.

Below, 3 molecules whose answers are already recorded.
>  <molecule>
Cc1cc2nc(-c3ccc4c(c3)c(C3CCN(C5CCOC5)CC3)nn4C)sc2c(-c2ccc(Cl)cc2)c1[C@H](OC(C)(C)C)C(=O)O (stereo in doubt) [Compound 26]

>  <labelClass>
1

$$$$
>  <molecule>
CC(=O)N1CC[C@@H]1CN1CCC(c2nn(C)c3ccc(-c4nc5cc(C)c([C@H](OC(C)(C)C)C(=O)O)c(-c6ccc(Cl)cc6)c5s4)cc23)CC1

>  <labelClass>
0

$$$$
>  <molecule>
Cc1cc2nc(-c3cnc4c(c3)c(N3CCN(C5COC5)CC3)nn4C)sc2c(-c2ccc(Cl)cc2)c1[C@H](OC(C)(C)C)C(=O)O

>  <labelClass>
0

$$$$

Find out if reported EC50 for `Cc1cc2nc(-c3ccc4c(c3)c(C3CCN(C(=O)OC(C)(C)C)CC3)nn4C)sc2c(-c2ccc(Cl)cc2)c1[C@H](OC(C)(C)C)C(=O)O` is less than 7 nM 0

Find out if reported EC50 for `COC(=O)N1CC[C@H](N2CCC(c3nn(C)c4ccc(-c5nc6cc(C)c([C@H](OC(C)(C)C)C(=O)O)c(-c7ccc(Cl)cc7)c6s5)cc34)CC2)C1` is less than 7 nM 1

* * *

- System: HIV-IIIb IN T174I BT
- procedureSummary: Antiviral assay in MT4 cells, HIV-IIIb IN T174I BT virus (from viral breakthrough)
- Type: cell-based, HIV-1
- runParameters: Human immunodeficiency virus 1, IIIB, MT4, 120 h, read-out: T174I BT EC50, MT4 cells, HIV-IIIb IN T174I BT (viral breakthrough), 5 days, CellTiter-Glo
EC50 overview
Answer with a number only, understood to be in nM.

>  <molecule>
COCCOC1CN(c2nn(C)c3ccc(-c4nc5cc(C)c([C@H](OC(C)(C)C)C(=O)O)c(-c6ccc(Cl)cc6)c5s4)cc23)C1

>  <studyTarget>
HIV-IIIb IN T174I BT

>  <metric>
EC50

>  <scaleUnit>
nM

>  <numericResult>
1160

$$$$
>  <molecule>
COCC(=O)N1CCC(c2nn(C)c3ccc(-c4nc5cc(C)c([C@H](OC(C)(C)C)C(=O)O)c(-c6ccc(Cl)cc6)c5s4)cc23)C1 (stereo partly drawn)

>  <studyTarget>
HIV-IIIb IN T174I BT

>  <metric>
EC50

>  <scaleUnit>
nM

>  <numericResult>
423

$$$$

Proceeding to the next molecule to report its EC50.
Name the reported EC50 value associated with the molecule Cc1cc2nc(-c3ccc4c(c3)c(C3CCN(C5COC5)C3)nn4C)sc2c(-c2ccc(Cl)cc2)c1[C@H](OC(C)(C)C)C(=O)O (stereo partly drawn) 587

* * *

- Tested on: HIV-IIIb (wildtype)
- procedureSummary: Antiviral assay in MT4 cells, HIV-IIIb wildtype
- Type: cell-based, HIV-1
- runParameters: Human immunodeficiency virus 1, IIIB, MT4, 120 h, read-out: WT EC50
metric: EC50 (nM)
Answer with a number only, understood to be in nM.

// solved cases for EC50 follow
>  <compound>
Cc1cc2nc(-c3ccc4c(c3)c(C3CCN(C(=O)C5COC5)CC3)nn4C)sc2c(-c2ccc(Cl)cc2)c1[C@H](OC(C)(C)C)C(=O)O

>  <studyTarget>
HIV-IIIb (wildtype)

>  <EC50 / nM>
18

$$$$
>  <compound>
COCCOC1CN(c2nn(C)c3ccc(-c4nc5cc(C)c([C@H](OC(C)(C)C)C(=O)O)c(-c6ccc(Cl)cc6)c5s4)cc23)C1

>  <studyTarget>
HIV-IIIb (wildtype)

>  <EC50 / nM>
13

$$$$
>  <compound>
Cc1cc2nc(-c3ccc4c(c3)c(C3CCN(C5CN(C)C5)CC3)nn4C)sc2c(-c2ccc(Cl)cc2)c1[C@H](OC(C)(C)C)C(=O)O

>  <studyTarget>
HIV-IIIb (wildtype)

>  <EC50 / nM>
12

$$$$

Name the reported EC50 value associated with the compound `Cc1cc2nc(-c3ccc4c(n3)c(C3CCN(C5CN(C)C5)CC3)nn4C)sc2c(-c2ccc(Cl)cc2)c1[C@H](OC(C)(C)C)C(=O)O` 4

Name the reported EC50 value associated with the compound CC(=O)N1CCC(c2nn(C)c3ccc(-c4nc5cc(C)c([C@H](OC(C)(C)C)C(=O)O)c(-c6ccc(Cl)cc6)c5s4)cc23)C1 (stereo partly drawn) 10

Name the reported EC50 value associated with the compound Cc1cc2nc(-c3ccc4c(c3)c(C3CCN(C5CCC5)C3)nn4C)sc2c(-c2ccc(Cl)cc2)c1[C@H](OC(C)(C)C)C(=O)O (stereo partly drawn) 5

Name the reported EC50 value associated with the compound `Cc1cc2nc(-c3cnc4c(c3)c(C3CCN(C5COC5)CC3)cn4C)sc2c(-c2ccc(Cl)cc2)c1[C@H](OC(C)(C)C)C(=O)O` 8

Name the reported EC50 value associated with the compound CCN1CCC(c2nn(C)c3ccc(-c4nc5cc(C)c([C@H](OC(C)(C)C)C(=O)O)c(-c6ccc(Cl)cc6)c5s4)cc23)C1 (stereo partly drawn) 11

Name the reported EC50 value associated with the compound `CC(=O)N1CC[C@@H](N2CCC(c3nn(C)c4ccc(-c5nc6cc(C)c([C@H](OC(C)(C)C)C(=O)O)c(-c7ccc(Cl)cc7)c6s5)cc34)CC2)C1` 10

Name the reported EC50 value associated with the compound COCC(=O)N1CCC(c2nn(C)c3ccc(-c4nc5cc(C)c([C@H](OC(C)(C)C)C(=O)O)c(-c6ccc(Cl)cc6)c5s4)cc23)C1 (stereo partly drawn) 16

Name the reported EC50 value associated with the compound `COC(=O)N(C)C1CN(c2nn(C)c3ccc(-c4nc5cc(C)c([C@H](OC(C)(C)C)C(=O)O)c(-c6ccc(Cl)cc6)c5s4)cc23)C1` 13

Name the reported EC50 value associated with the compound `Cc1cc2nc(-c3ccc4c(c3)c(N3CCC(C5COC5)CC3)nn4C)sc2c(-c2ccc(Cl)cc2)c1[C@H](OC(C)(C)C)C(=O)O` 31
